- Test system: IGFBP-1
- assay-procedure: IGFBP-1 mRNA expression in HepG2 cells
- Format: cell-based, human
- test-conditions: Experiment 1, basal (no insulin); HepG2; 100 nM oligomeric compound
In the oligonucleotide strings, read from the 5' end, every base follows the letter of its sugar. An asterisk marks phosphorothioate; unmarked linkages are phosphodiester. Other units and linkages are bracketed, terminal groups are in braces. A string of capitals states the bases alone. e = 2'-O-(2-methoxyethyl) (MOE); [5mC] = 5-methylcytosine
measurement-kind: IGFBP-1 (% UTC)

[
  {
    "substance": "327934 (antisense eG*eG*eT*eA*e[5mC]*eA*eA*eT*e[5mC]*eA*eA*e[5mC]*eG*eG*eT*e[5mC]*eG*eA*eT*eG*eG*eT) [compound 327934]",
    "numeric-value": 231
  },
  {
    "substance": "327903 (antisense eA*eA*e[5mC]*eT*eA*eT*eA*e[5mC]*eA*eA*e[5mC]*e[5mC]*eT*eA*e[5mC]*eT*eA*e[5mC]*e[5mC]*eT*e[5mC]*eA) [compound 327903]",
    "numeric-value": 71
  },
  {
    "substance": "327954 (antisense eA*e[5mC]*eA*eA*eA*eG*eT*eT*e[5mC]*eT*eG*eT*eG*eA*eT*eG*e[5mC]*eA*e[5mC]*eT*eG*eA) [compound 327954]",
    "numeric-value": 118
  }
]

# credit: patent US8178506B2
